# system: hDAT (Homo sapiens, UniProt Q01959)
# Sequence (Q01959 whole entry): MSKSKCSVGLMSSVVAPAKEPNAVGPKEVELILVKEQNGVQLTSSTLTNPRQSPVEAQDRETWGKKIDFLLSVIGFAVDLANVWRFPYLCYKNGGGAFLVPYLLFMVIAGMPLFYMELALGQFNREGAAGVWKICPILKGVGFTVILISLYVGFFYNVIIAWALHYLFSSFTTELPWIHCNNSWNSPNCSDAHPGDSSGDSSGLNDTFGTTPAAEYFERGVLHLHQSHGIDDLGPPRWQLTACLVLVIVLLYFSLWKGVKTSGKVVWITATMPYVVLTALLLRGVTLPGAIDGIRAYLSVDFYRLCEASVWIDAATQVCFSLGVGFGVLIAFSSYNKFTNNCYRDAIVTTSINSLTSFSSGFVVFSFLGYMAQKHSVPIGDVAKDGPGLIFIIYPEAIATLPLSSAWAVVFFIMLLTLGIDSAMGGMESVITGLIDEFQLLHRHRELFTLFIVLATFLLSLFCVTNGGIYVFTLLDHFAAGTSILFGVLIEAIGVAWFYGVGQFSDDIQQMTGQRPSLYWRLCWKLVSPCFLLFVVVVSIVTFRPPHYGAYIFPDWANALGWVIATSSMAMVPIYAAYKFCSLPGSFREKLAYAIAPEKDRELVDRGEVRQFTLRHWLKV
# assay_explanation: Neurotransmitter Transporter Uptake Assay Kit, DA reuptake inhibition
# condition_parameters: Table 1; inhibition of dopamine reuptake, reduction of RFU
Counter-ions that a name gives are not always drawn.
measurement_label: IC50 (nM)

compound="Cc1cccc(C)c1NC(=O)C1CCCCN1C (stereo not drawn) [Compound 14, Mepivacaine hydrochloride]" system="hDAT (Homo sapiens, UniProt Q01959)" unit_spec=nM measured=542
compound=CCCN1CCCC[C@H]1C(=O)Nc1c(C)cccc1C system="hDAT (Homo sapiens, UniProt Q01959)" unit_spec=nM measured=753
compound=CCCCN1CCCC[C@H]1C(=O)Nc1c(C)cccc1C system="hDAT (Homo sapiens, UniProt Q01959)" unit_spec=nM measured=1210

The measurements presented in this section are drawn from paper PMC12398837.
